test system: MS2 coat protein; assay: apparent KD of MS2 coat protein; designed switch direction (-1 OFF switch, 1 ON switch): 1; higher = weaker reporter binding; conditions: input ligand: FMN 200 uM
Outcome: label 1 for apparent KD of MS2 coat protein of at least 100 nM; label 0 for anything lower.

Past entries and their recorded results:
{"columns": ["seq_string", "category_label"],
 "data": [
  ["UUACUCCCUACAUGAGGAUCACCCAUGUUUUACAAACCCAACGAGGAUAUGUUGAGCGGAUGUAAGCAGAAGGCGUAGGGUAGA [Eternabot solution 37] (Eterna round: R96, puzzle: Same State NG 3)", "label 1"],
  ["CCGAUGGUAUACUAGGAUAUGGGCGCCCUUACAUGAGGAUCACCCAUGUUUACACAAAUCCGCGGCCAGAAGGAGUUCAUGGGAG [Orgere] (Eterna round: R96, puzzle: Same State 2)", "label 1"],
  ["GUGGAGGGUUGAGGAUAUUGAAUACAUAUGUUUAACAUGAGGAUCACCCAUGUGGGUUGCGGUAUCGAGAAGGUAAGUUGCUGG [salish99_SSNG2_r04_038] (Eterna round: R96, puzzle: Same State NG 2)", "label 1"],
  ["AUAUGAGGAGCAGGAUAUGCGGAGAAGAAAGAAGCAGAAGGGCUCAUGGGACGACAUGAGGAUCACCCAUGUGCUCCGCGAUGA [AK SSNG1-V2-4] (Eterna round: R96, puzzle: Same State NG 1)", "label 0"]
]}

Let's switch to this sequence now.
Ask: hey, is apparent KD of MS2 coat protein for this one >= 100 nM? GCGAGCGUACUUGCAGACAUGAGGAUCACCCAUGUAACUGGACAGGAUAUGGUACCGUUUCGGUACCAGAAGGGUCCAUAUGUC [JL SSNG3 3.54] (Eterna round: R96, puzzle: Same State NG 3)
Result: label 0

Reference source: the supplement of paper PMC9170038
